# melting point values compiled below
MEASURED ENDPOINT: melting point

O=C(O)CC[C@@H](Cc1cn(CCCc2ccccc2)c2ccccc12)NC(=O)CCCCCCc1ccccc1 = 100 to 102 °C
CS(=O)(=O)Nc1ccccc1OCCCN1CCC(OC(c2ccccc2)c2ccccc2)CC1 = 106 to 107 °C
COc1ccc(C2CCN(C(=O)/C(=N/O)C(N)=O)CC2)cc1OC1CCCC1 = 109 to 111 °C
CSc1ccc(/C=C2/C(C)=C(CCO)c3cc(F)ccc32)cc1 = 101 to 103 °C
COc1ccc(N2CCOCC2)c2sc(-c3ncc[nH]3)nc12 = 228 to 230 °C

----------
# melting point values compiled below
MEASURED ENDPOINT: melting point

OCc1cn2c(n1)sc1ccccc12 = 131 °C
O=C(C=P(c1ccccc1)(c1ccccc1)c1ccccc1)CSc1ccccc1 = 132 to 134 °C
COc1ccc2cc(S(=O)(=O)Nc3cccc(Cl)c3C)cc(S(=O)(=O)Nc3cccc(Cl)c3C)c2c1 = 166 to 168 °C
CCOC(=O)c1nc(N)sc1-c1ccccn1 = 186 to 187 °C
NS(=O)(=O)c1cnc(-c2cn(-c3cc(-c4ccc(Cl)cc4)cc(C(F)(F)F)n3)cn2)s1 = 263 °C
CCCCCS(=O)(=O)NC(=O)c1ccc2nc(C)n(Cc3ccc(N(C)C(=O)OCC)cc3Cl)c2n1 = 149 to 150 °C
COc1ccc(N2CCN(c3c(C)c(C(C)O)c4c(c3C)C(c3ccc(C)cc3)C(C)(C)O4)CC2)cc1 (centres undefined) = 149 to 151 °C
Oc1ccc2c(c1O)OCC(c1cccc(F)c1)C2 (centres undefined) = 148 to 149 °C
COc1ccc(OC)c(NC(=O)Cc2ccccc2)c1 = 85 °C

----------
MEASURED ENDPOINT: melting point

CCOc1c(C(=O)OCC(C)(C)C(O)C(C)(C)C)oc2ccc(OC)cc12 (stereo unspecified) = 100 to 101 °C
ClC1(NC2(Cc3ccncc3)NN=Cc3ccncc32)C=CC=CC1 (stereo unspecified) = 220 to 221 °C
CCOC(=O)CNCc1cc(I)ccc1N = 58 to 61 °C
CC(C)=NOCc1nc2c(N)nc(C)c(C)c2n1CCCCNC(=O)c1ccccc1 = 206 to 208 °C
CCCOCCOc1cccc2oc(C(=O)N3CCN(C)CC3)cc(=O)c12 = 78 to 80 °C
Cc1ccc(S(=O)(=O)n2ccc3c(CO)cccc32)cc1 = 125 to 126 °C
CC(=O)ON=C(N)c1ccc(C(=O)N2CCN(C(=O)[C@@H]3CCCN3S(=O)(=O)c3ccc(Cl)c(COc4cccc5ncc(C)nc45)c3Cl)CC2)cc1 = 161 to 165 °C
Clc1ccc(-c2[nH]nc(N3CCNCC3)c2-c2ccncc2)cc1 = 264 to 265 °C
CC1(c2ccccc2)C(=O)Nc2cc(Cl)ccc2C1=O (stereo unspecified) = 174 to 175 °C
CC(CC#N)C(C#N)(c1ccc(N2CCOCC2)c([N+](=O)[O-])c1)N1CCOCC1 (stereo unspecified) = 175 to 177 °C
C[C@@H](NC(=O)c1ccc(-c2ccc(Cl)cc2)o1)[C@](O)(Cn1cncn1)c1ccc(F)cc1F = 218 to 219 °C
Nc1ncnc2c1ncn2CCO = 236 °C
CC(C)c1n[nH]c2c(NCc3cccc(O)c3)ncnc12 = 220 to 221 °C
Sc1nccn1Cc1ccccc1Cl = 206 to 207 °C
O=C(Cc1ncc[nH]1)c1ccc2ccccc2c1 = 125 to 126 °C
O=C(Nc1ccc(O)c(O)c1)C12CC3CC(CC(C3)C1)C2 = 196 to 199 °C
CNc1ccc(CN2C(=O)C(C)(c3ccccc3Cl)c3cc(Cl)ccc32)c(OC)c1 (stereo unspecified) = 226 °C
CC(Cc1nc(-c2ccccc2)cc2ccccc12)C(=O)O (stereo unspecified) = 184 °C
O=C(NC(CO)CO)c1cnccc1C(F)(F)F = 155 to 156 °C
O=C(O)c1nc2c(=O)[nH]c3cc(C(F)(F)F)ccc3n2c1CNc1ccc2c(c1)OCO2 = > 250 °C
CCCCc1nc2c(N)nc3cccnc3c2n1CCNC(=O)C(CC(C)C)NC(=O)OC(C)(C)C (stereo unspecified) = 184 to 185 °C
O=C(COc1ccc(-c2ccccc2)cc1)Nc1cscc1C(=O)O = 247 to 251 °C
O=C1OC(CCOc2ccc3oc4ccccc4c3c2)C(O)=C1O (stereo unspecified) = 191 to 192 °C
CC(C)(C)C(=O)CC(c1ccc(Cl)cc1)S(=O)(=O)c1ccccc1 (stereo unspecified) = 145 to 146 °C
COc1ncccc1C(=O)N(C(C)C)C(C)C = 109 °C
N#Cc1c[nH]nc1-c1ccc([N+](=O)[O-])o1 = 238 to 239 °C
CS(=O)(=O)Nc1cc(C(c2cc(F)ccc2F)S(=O)(=O)c2ccc(F)cc2)c(Cl)cn1 (stereo unspecified) = 178 to 179 °C
COc1cccc(CNC(=O)c2nc3scc(CC(=O)Nc4ccc(C(=O)O)cc4)c3c(=O)[nH]2)c1 = 279 °C
Cc1cc(Nc2ccnc(Nc3ccc(S(=O)(=O)N4CCC(CNCCC(=O)N(C)C)CC4)cc3)n2)ccc1F = 201 °C
c1ccc(-c2[nH]c3ccccc3c2CCC2CCNCC2)cc1 = 183 °C
O=C(CCCCCCC(=O)N1CCN(CC(=O)Nc2nc3ccccc3s2)CC1)NO = 166 to 170 °C
CC(C)(C)OC(=O)N1CCn2c(c(C#N)c(Cl)c2C2CC2)C1 = 132 to 134 °C
CCC1c2ccccc2-c2sc(Br)cc2N1S(=O)(=O)c1ccc(O)cc1 (stereo unspecified) = 183 to 185 °C
COC1(c2cccc(S(=O)(=O)c3ccc4c(c3)sc(=O)n4C)c2)CCOCC1 = 174 to 176 °C
Cc1nccn1-c1nccc2[nH]c(=O)ccc12 = > 310 °C
COC1=C(c2cccc(C(F)(F)F)c2)C(=O)N(C(C)(C)C)C1 = 129 °C
C[C@@H](Nc1nnc(-c2ccccc2)c2ccccc12)C1CCCCC1 = 164 to 167 °C
CNC(=S)NCCCc1ncco1 = 43 to 45 °C
Cc1[nH]c(=O)ccc1C(=O)c1ccccc1 = 185 to 187 °C
Cc1nnc(COc2ccc(OCC(C)Oc3ccccn3)cc2)s1 (stereo unspecified) = 72 to 78 °C
CCCN1C(=O)N2CC(c3cccnc3)CN=C2c2[nH]c(C3CCCC3)nc21 (stereo unspecified) = 190 to 195 °C
